Numbers sourced from patent US4346087A.

Exercise: state measured MIC for each of the compounds provided.
# System: Desulfovibrio desulfuricans IFO 13699
# Experiment: MIC against Desulfovibrio desulfuricans
# Assay type: cell-based
# Run conditions: Desulfovibrio desulfuricans, IFO13699, 24 h
# Text: Below are described the antibacterial activities of the compounds in the compositions according to this invention. The testing method complied with the standard method of Japan Sociaty of Chemotherapy.
Value expressed in µg/mL; do not type the unit.

Input: Entry `CCCCCCCCCCCCN1CCC[N+](CC(=O)[O-])=C(C)CC1=O` , system Desulfovibrio desulfuricans IFO 13699: what MIC was measured?
Output: 12.5

Input: Continue with `CCCCCC[C@@H](O)C/C=C\CCCCCCCC(=O)NCCN1CCN=CC(C)(C)C1=O`
Output: 25

Input: Follow-up item: CCCCCCCCCCCCN1CCCN=CC(C)C1=O (stereo not shown)
Output: 25

Input: Another compound to look at: CCCCCCCCCCCCCCC(O)CNCCN1CCCN=CC(C)(C)C1=O (stereo not shown)
Output: 6.25

Input: Thanks! And CCCCCCC(O)CC=CCCCCCCCC(=O)OC(C)CN1CCC[N+](CC(=O)[O-])=C(C)CC1=O (stereo not shown) ?
Output: 25

Input: Then `CCCCCCCCCCCCCCCCCCCCCC(=O)OCCN1CCN=CCCC1=O` ?
Output: 12.5

Input: Next compound: `CCCCCCCCCCCC(=O)OCCN1CC[N+](CC(=O)[O-])=C(C)CC1=O`
Output: 25

Input: How about `CCCCCCCCCCCC(=O)OCCN1CCCN=C(C)CC1=O` ?
Output: 12.5

Input: Now give it for CCCCCCCCCCCCCCCCCCCCC(O)CNCCNCCN1CCC[N+](CC(=O)[O-])=C(C)CC1=O (stereo not shown) too.
Output: 6.25

Input: Also need CCCCCCCCCCC(O)CN1CC[N+](CC(=O)[O-])=CC(C)C1=O (stereo not shown) , thanks.
Output: 25

Input: Next compound: CCCCCCCCCCCC(=O)OCCN1CC[N+](CC(=O)[O-])=CC(C)C1=O (stereo not shown)
Output: 50

Input: Next up: `CCCCCCCCCCCCOCCNCCN1CCN=C(C)CC1=O`
Output: 25

Input: How about this compound: `CCCCCCCC(=O)NCCN1CC[N+](CC(=O)[O-])=C(C)CC1=O`
Output: 50

Input: Now try CCCCCCCCc1ccc(OCCOC(C)COC(C)CN2CCN=C(C)CC2=O)cc1 (stereo not shown) .
Output: 25

Input: Again, but for CCCCCCCCCCCCC(O)CNCCN1CC[N+](CC(=O)[O-])=C(C)CC1=O (stereo not shown)
Output: 12.5

Input: Another: CCCCCCCCCCCCCCNCCN1CC[N+](CC(=O)[O-])=CC(C)C1=O (stereo not shown)
Output: 6.25

Input: Another compound: `CCCCCCCCCCCCCCCCN1CCN=C(C)CC1=O`
Output: 6.25

Input: Input CCCCCCCCCCCCN1CCC[N+](CC(=O)[O-])=CC(C)C1=O (stereo not shown)
Output: 25

Input: Same question, CCCCCCCC/C=C\CCCCCCCCNCCCNC(=O)CCCCCCC/C=C\CCCCCCCC [Oleylaminopropyl oleamide, oleylaminopropyloleamide, reference compound] this time
Output: 100

---

Give measured MIC for each item. Keep answers brief.
# System: Bacillus subtilis ATCC 6633
# Experiment: MIC against Bacillus subtilis ATCC 6633
# Format: cell-based
# Run conditions: Bacillus subtilis, ATCC6633, 24 h
The answer is to be given in µg/mL; state only the numeric part.

Input: Need MIC of `CCCCCCCCCCCC(=O)NCCN1CC[N+](CC(=O)[O-])=C(C)CC1=O` , thanks.
Output: 50

Input: // query: CCCCCCCCCCCCCCNCCN1CCN=CC(C)C1=O (centres unmarked)
Output: 3.12

Input: Please answer likewise for `CCCCCCCCCCCCCCNCCN1CC[N+](CC(=O)[O-])=C(C)CC1=O`
Output: 12.5

Input: Let us now turn to `CCCCCCCCCCCCNCCNCCN1CCN=C(C)CC1=O`
Output: 3.12

Input: Item: CCCCCCCCCCCCCCNCCN1CCCN=CC(C)C1=O (centres unmarked)
Output: 6.25

Input: Item: CCCCCCCCCCCCCCC(O)CNCCN1CCN=C(C)CC1=O (centres unmarked)
Output: 3.12

Input: Try this compound next: `CCCCCCCCCCCCCCNCCN1CCCN=CC(C)(C)C1=O`
Output: 3.12

Input: Also `CCCCCCCCCCCCCCNCCN1CCN=CCCC1=O` ?
Output: 3.12

Input: Now the same for CCCCCCCCCCCCCCC(O)CNCCN1CCN=CCC(C)C1=O (centres unmarked)
Output: 6.25

Input: Param item: CCCCCCCCCCCCCCC(O)CNCCN1CCCN=CC(C)(C)C1=O (centres unmarked)
Output: 3.12

Input: Now give it for `CCCCCCCCCCCC(=O)NCCN1CCN=C(C)CC1=O` too.
Output: 25

Input: Okay, and CCCCCCCCCCCCCCNCCN1CCN=CCC(C)C1=O (centres unmarked) ?
Output: 3.12

Input: Try this compound next: CCCCCCCCCCCCCCC(O)CNCCN1CCN=CC(C)(C)C1=O (centres unmarked)
Output: 3.12

Input: Entry CCCCCCCCCCCCCCC(O)CNCCN1CCN=CCCC1=O (centres unmarked) please
Output: 3.12

---

# Test system: Desulfovibrio desulfuricans IFO 13699
# Experiment: MIC against Desulfovibrio desulfuricans
# Assay type: cell-based
# Run conditions: Desulfovibrio desulfuricans, IFO13699, 24 h
Quantity measured: MIC (µg/mL)
// units = µg/mL; emit number, no label

Input: Requested read-out: MIC. Entry: `CCCCCC[C@@H](O)C/C=C\CCCCCCCC(=O)NCCN1CC[N+](CC(=O)[O-])=CC(C)(C)C1=O`
Output: 50

Input: And for CCCCCCCCCc1ccc(OCC(O)CNCCNCCNCCN2CC[N+](CC(=O)[O-])=CCC(C)C2=O)cc1 (stereo not drawn) ?
Output: 50

Input: How about CCCCCCCCCc1ccc(OCC(O)CNCCNCCNCCN2CCN=C(C)CC2=O)cc1 (stereo not drawn) ?
Output: 25

Input: Can you handle CCCCCCCCCCCCCCNCCN1CCC[N+](C(C)C(=O)[O-])=CC(C)(C)C1=O (stereo not drawn) next?
Output: 6.25

Input: Okay, and CCCCCCCCCCCCCCNCCN1CCN=CCC(C)C1=O (stereo not drawn) ?
Output: 6.25

Input: What about `CCCCCCCC/C=C\CCCCCCCC(=O)OCCN1CC[N+](CC(=O)[O-])=C(C)CC1=O` ?
Output: 25

Input: Same again, this time with CCCCCCCCCc1ccc(OCC(O)CNCCNCCNCCN2CC[N+](CC(=O)[O-])=C(C)CC2=O)cc1 (stereo not drawn)
Output: 50

Input: Note, next up: `CCCCCCCCOCCCN1CCN=C(C)CC1=O`
Output: 50

Input: Also check CCCCCCCCCCCCN1CC[N+](CC(=O)[O-])=CC(C)C1=O (stereo not drawn)
Output: 25

Input: Also need CCCCCCCCCCC(O)CN1CCN=CC(C)C1=O (stereo not drawn) , thanks.
Output: 12.5

Input: Record: CCCCCCCCCCCCN1CCN=CC(C)C1=O (stereo not drawn)
Output: 6.25

Input: // query: CCCCCCCCCCCC(=O)NCCN1CCN=CC(C)C1=O (stereo not drawn)
Output: 6.25

Input: Same question for `CCCCCCCCOCCCN1CCN=CC(C)(C)C1=O` please.
Output: 50

Input: Now give it for `CCCCCCCC(=O)NCCN1CCN=CCCC1=O` too.
Output: 50

Input: Now the same for `CCCCCCCCCCCCOCCNCCN1CC[N+](CC(=O)[O-])=C(C)CC1=O`
Output: 25

---

# System: Escherichia coli NIHJ
# Experiment: MIC against Escherichia coli NIHJ
# Format: cell-based
# Run conditions: Escherichia coli; Table 2, derivatives having a carboxylate radical; heart infusion agar, 37° C., 24 hours; read-out: MIC
Quantity measured: MIC (µg/mL)
Answer in µg/mL, number only, no unit symbol.

Input: Given CCCCCCCCCCCCN1CCC[N+](CC(=O)[O-])=CC(C)C1=O (stereo not drawn) , state its recorded MIC.
Output: 1600

Input: // query: CCCCCCCCCCC(O)CN1CC[N+](CC(=O)[O-])=CC(C)C1=O (stereo not drawn)
Output: 800

Input: Try this compound too: `CCCCCCCCOCCCN1CC[N+](CC(=O)[O-])=CC(C)(C)C1=O`
Output: 800

Input: Same for `CCCCCCCCOCCCN1CC[N+](CC(=O)[O-])=C(C)CC1=O`
Output: 1600

Input: And then `CCCCCCCC/C=C\CCCCCCCC(=O)OCCN1CC[N+](CC(=O)[O-])=C(C)CC1=O` , what is it?
Output: 3200

Input: Next record, please: CCCCCCCCCc1ccc(OCC(O)CNCCNCCNCCN2CC[N+](CC(=O)[O-])=C(C)CC2=O)cc1 (stereo not drawn)
Output: 800

Input: What about this compound? `CCCCCCCCCCCC(=O)OCCN1CCC[N+](CC(=O)[O-])=C(C)CC1=O`
Output: 3200

Input: And for `CCCCCCCC(=O)OCCN1CC[N+](CC(=O)[O-])=C(C)CC1=O` ?
Output: 3200
